Attribution: PubChem BioAssay (Tox21)

Experiment: Human pregnane X receptor (PXR) small molecule agonists, qHTS cell viability counter screen (AID 1346977); note: nearly all actives have a fitted effect of over 50% in size
Settings: PXR-Luc HepG2 viability, CellTiter-Fluor, 24 h; series mostly up to 92.4 µM
Text: U.S. Tox21 Program National Center for Advancing Translational Sciences [NCATS] NIH Chemical Genomics Center [NCGC] U.S. Environmental Protection Agency [EPA] National Institutes of Environmental Health Sciences [NIEHS] National Toxicology Program [NTP] U.S. Food and Drug Administration [FDA] […]
Results filed as inconclusive are left out. The source made the active and inactive calls. Calls come from the whole dose curve; as a rule, active = well fitted cell-killing curve with a large enough effect in the repeat runs; inconclusive = weak or mixed curves, or effect the other way; inactive = flat fitted curve, though single readings scatter.
Outcome codes: T = active, F = inactive

compound	category label
Oc1ccc2ccccc2c1	F
CCCCCCCCCCCCOCC1CO1 (configuration not stated)	F
CCCCCCC(C)(C)S	F
Cc1ccc(C)c(C)c1	F
Cc1cc(Cc2ccc(N)c(C)c2)ccc1N	F
NC(=O)NNc1ccccc1	F
Cc1cc(O)c2c(c1)C(=O)c1cc(O)cc(O)c1C2=O	T
CC1=C(CC(=O)O)c2cc(F)ccc2/C1=C\c1ccc(S(C)=O)cc1 (configuration not stated)	F
Nc1nc2ncc(CNc3ccc(C(=O)N[C@@H](CCC(=O)O)C(=O)O)cc3)nc2c(=O)[nH]1	F
CC1(C)O[C@@H]2C[C@H]3[C@@H]4C[C@H](F)C5=CC(=O)CC[C@]5(C)[C@H]4[C@@H](O)C[C@]3(C)[C@]2(C(=O)CO)O1	F
CC[Si](OC(C)=O)(OC(C)=O)OC(C)=O	F
CCC(C)C=O (configuration not stated)	F
CC(C)NCC(O)COc1cccc2ccccc12 (configuration not stated)	T
Clc1ccc(Cl)c(Cl)c1Cl	F
Cc1cc(NS(=O)(=O)c2ccc(N)cc2)no1	F
C[C@@H]1O[C@@H](OC[C@H]2O[C@@H](Oc3c(-c4ccc(O)c(O)c4)oc4cc(O)cc(O)c4c3=O)[C@H](O)[C@@H](O)[C@@H]2O)[C@H](O)[C@H](O)[C@H]1O	F
COC(=O)Nc1nc2ccc(Sc3ccccc3)cc2[nH]1	F
C=C(C)C(=O)OCC(CC)(COC(=O)C(=C)C)COC(=O)C(=C)C	F
CC1COc2ccccc2N1C(=O)C(Cl)Cl (configuration not stated)	T
O=[N+]([O-])c1cccc(Cl)c1	F
O=S(=O)(O)CCS	F
CC#C[C@]1(O)CC[C@H]2[C@@H]3CCC4=CC(=O)CCC4=C3[C@@H](c3ccc(N(C)C)cc3)C[C@@]21C	F
OC[C@@H](O)[C@H](O)[C@H](O)[C@@H](O)CO	F
c1ccc2ccccc2c1	F
C=C1C2CCC(C2)C1(C)C (configuration not stated)	F
O=C(c1ccc(O)cc1)c1ccc(O)cc1O	F
O=C(O)c1ccc([N+](=O)[O-])cc1	F

---

Assay: A CellTox Green Cytotoxicity Assay to monitor cytotoxicity in HepG2 cells - 24 hour (AID 1224878); note: nearly all actives have a fitted effect of over 45% in size
Settings: CellTox Green fluorescence; series mostly up to 76.8 µM
Source text: National Center for Advancing Translational Sciences [NCATS] NIH Chemical Genomics Center [NCGC] U.S. Environmental Protection Agency [EPA] National Institutes of Environmental Health Sciences [NIEHS] National Toxicology Program [NTP] Cell-based models are critical for drug discovery. […] Viable cells produce no appreciable increases in fluorescence. Therefore, the fluorescence signal produced by the binding interaction with dead cell DNA is proportional to cytotoxicity. […]
Inconclusive results are not listed. Active and inactive are the calls of the source. Calls come from the whole dose curve; as a rule, active = well fitted activation curve with a large enough effect in the repeat runs; inconclusive = weak or mixed curves; inactive = flat fitted curve, though single readings scatter.
Possible outcomes: 1.0 (active), 0.0 (inactive)

molecule	category label
CC1CC(OC(=O)c2ccccc2O)CC(C)(C)C1 (configuration not stated)	0.0
CC(C)(C)C1CCC(O)CC1 (configuration not stated)	0.0
O=C(c1cc(O)c(O)c(O)c1)c1ccc(O)c(O)c1O	0.0
Clc1ccc(Cl)c(Cl)c1Cl	0.0
O=[N+]([O-])c1cccc(Cl)c1	0.0
C=C(C)C(=O)OCCCCCCCCCCCC	0.0
C=C1C2CCC(C2)C1(C)C (configuration not stated)	0.0
CCC(=O)O	0.0
CC(C)(N=C=O)c1cccc(C(C)(C)N=C=O)c1	0.0
CC(=O)[C@@]1(O)CC[C@H]2[C@@H]3CCC4=CC(=O)CC[C@]4(C)[C@H]3CC[C@@]21C	0.0
O=S(=O)(Oc1ccc(Cl)cc1Cl)c1ccccc1	0.0
COCC(=O)O	0.0
NS(=O)(=O)c1cc2c(cc1Cl)NC=NS2(=O)=O	0.0
O=[N+]([O-])C(CO)(CO)CO	0.0
O=[N+]([O-])c1cc(N(CCO)CCO)ccc1NCCO	0.0
Nc1c(S(=O)(=O)O)cc(Br)c2c1C(=O)c1ccccc1C2=O	0.0
CCCCC(CC)COC(=O)CCCCCCCC(=O)OCC(CC)CCCC (configuration not stated)	1.0
O=C1CCCCC1	0.0
NC(=O)/N=N/C(N)=O	0.0
Nc1nc2ncc(CNc3ccc(C(=O)N[C@@H](CCC(=O)O)C(=O)O)cc3)nc2c(=O)[nH]1	0.0
C=CC(=O)OCCCCCCCC(C)C	0.0
Clc1cc(Cl)c(Cl)cc1Cl	0.0
C=C1CC[C@H](O)CC1=C/C=C1\CCC[C@]2(C)[C@@H]([C@H](C)/C=C/[C@H](C)C(C)C)CC[C@@H]12	0.0
CCOC(=O)C1OC1c1ccccc1 (configuration not stated)	0.0
OC1CCCC1	0.0
OCC1CCCO1 (configuration not stated)	0.0
C[C@@H](O)[C@H]1C(=O)N2C(C(=O)O)=C(S[C@@H]3CN[C@H](C(=O)N(C)C)C3)[C@H](C)[C@H]12	0.0
OC[C@@H](O)[C@@H](O)[C@H](O)[C@@H](O)CO	0.0
CC(C)(CO)COC(=O)C(C)(C)CO	0.0
Cc1cc(Cc2ccc(N)c(C)c2)ccc1N	0.0
O=C(O)c1cc(-c2ccccc2)nc2ccccc12	0.0
O=S(=O)(O)CCS	0.0
CCOC(=O)/C=C\C(=O)OCC	0.0
CC1(C)CC(N=C=O)CC(C)(CN=C=O)C1 (configuration not stated)	0.0
OC[C@@H](O)[C@H](O)[C@H](O)[C@@H](O)CO	0.0
CCCCC(CC)COC(C)=O (configuration not stated)	0.0
CC1Cc2ccccc2N1NC(=O)c1ccc(Cl)c(S(N)(=O)=O)c1 (configuration not stated)	0.0
CCCCCCCCCCC=CC1CC(=O)OC1=O (configuration not stated)	0.0
COCC(C)O (configuration not stated)	0.0
O=C1N=C(O)CN1/N=C/c1ccc(-c2ccc([N+](=O)[O-])cc2)o1	0.0
CCc1ccc(O)cc1	0.0
CS(=O)(=O)c1ccc([C@@H](O)[C@@H](CO)NC(=O)C(Cl)Cl)cc1	0.0
CCCCCCCCCC(=O)O	0.0
CNC[C@H](O)[C@@H](O)[C@H](O)[C@H](O)CO	0.0
CC(=O)CCc1ccccc1	0.0
NCCNCCNCCNCCN	0.0
Oc1ccc2ccccc2c1	0.0
Cc1cc(O)c2c(c1)C(=O)c1cc(O)cc(O)c1C2=O	0.0
O=c1c(-c2ccc(O)cc2)coc2cc(O)ccc12	0.0
C=C(C)C(=O)OCCCCCC	0.0
CCCCOCCOCCOC(=O)CCCCC(=O)OCCOCCOCCCC	0.0
Cc1ccc(C)c(C)c1	0.0
CC(C)Cc1ccccc1	0.0
NCc1cccc(CN)c1	0.0
CCCCC/C=C\C/C=C\CCCCCCCC(=O)OC	0.0
CCCCNC(N)=O	0.0
C/C=C(C)/C=C/C=C(C)C	0.0
